System: Staphylococcus aureus
Test: Antimicrobial activity against multidrug-resistant Staphylococcus aureus ATCC BAA-44 assessed as inhibition of bacterial growth by broth dilution method
Format: functional
reportedEndpoint: MIC (µM)
State the answer as a number, implicitly in µM.

Below: 4 compounds and their reported MIC.
- structureString: "CC(C)C[C@H](NC(=O)[C@H](CCCNC(=N)N)NC(=O)CNC(=O)[C@H](CC(C)C)NC(=O)[C@@H](NC(=O)[C@@H](CCCCN)NC(=O)[C@@H](NC(=O)[C@H](CC(C)C)NC(=O)[C@H](CCCNC(=N)N)NC(=O)CNC(=O)[C@H](CC(C)C)NC(=O)[C@@H](NC(=O)[C@H](N)CCCCN)C(C)C)C(C)C)C(C)C)C(=O)N[C@H](C(N)=O)C(C)C"
  MIC [µM]: 2
- structureString: "CC(C)C[C@H](NC(=O)[C@H](CCCNC(=N)N)NC(=O)CNC(=O)[C@H](CC(C)C)NC(=O)[C@@H](NC(=O)[C@@H](CCCCN)NC(=O)[C@@H](NC(=O)[C@H](CC(C)C)NC(=O)[C@H](CCCNC(=N)N)NC(=O)CNC(=O)[C@H](CC(C)C)NC(=O)[C@@H](NC(=O)[C@@H](N)CCCCN)C(C)C)C(C)C)C(C)C)C(=O)N[C@H](C(N)=O)C(C)C"
  MIC [µM]: 2
- structureString: "CC(C)C[C@H](NC(=O)[C@H](CCCNC(=N)N)NC(=O)CNC(=O)[C@H](CC(C)C)NC(=O)[C@@H](NC(=O)[C@H](CCCCN)NC(=O)[C@@H](NC(=O)[C@H](CC(C)C)NC(=O)[C@H](CCCNC(=N)N)NC(=O)CNC(=O)[C@H](CC(C)C)NC(=O)[C@@H](NC(=O)[C@H](N)CCCCN)C(C)C)C(C)C)C(C)C)C(=O)N[C@H](C(N)=O)C(C)C"
  MIC [µM]: 2
- structureString: "CCn1cc(C(=O)O)c(=O)c2cc(F)c(N3CCNCC3)cc21"
  MIC [µM]: 2.44

As a next step, examine the compound that follows.
stdin: Requested read-out: MIC. Entry: `CC(C)C[C@H](NC(=O)[C@H](CCCNC(=N)N)NC(=O)CNC(=O)[C@H](CC(C)C)NC(=O)[C@@H](NC(=O)[C@H](CCCCN)NC(=O)[C@@H](NC(=O)[C@H](CC(C)C)NC(=O)[C@H](CCCNC(=N)N)NC(=O)CNC(=O)[C@H](CC(C)C)NC(=O)[C@@H](NC(=O)[C@@H](N)CCCCN)C(C)C)C(C)C)C(C)C)C(=O)N[C@H](C(N)=O)C(C)C`
stdout: 2

Values from ChEMBL document CHEMBL5030557
